# Study system: RSV postfusion F (postF), F deltaFP (respiratory syncytial virus, UniProt P03420 26-513)
# Protocol description: BLI, IgG on sensor, 100 nM antigen
# key: entry, value: pKd
For clarity, pKd is expressed as the negative log10 of concentration in mol/L.

Solved entries (count: 2):
ADI-41370 (antibody, V domains shown, IgG1; also called Ab 667) VH: EVQLVESGGGLVKPGGSLRLSCAASGFTFSGFSMNWVRQAPGKGLEWVSSISSTSRYIYYADSVQGRFTISRDNAKNSLYLQMNSLRAEDTAVYYCARDPGGSASFVPYYYGMDVWGQGATVTVSS VL: SYELIQPPSVSVSPGQTARITCSGDALPNQYVYWYQKKPGQAPVLVIYKDTEGPLGIPERFSGSSSGTTVTLTISGVQAEDEADYYCQSADSSGTYPYVVFGGGTKLTVL	8.79
ADI-41372 (antibody, V domains shown, IgG1; also called Ab 669) VH: QVQLVQSGAEVKKPGSSVKVSCKASGGISSSYAISWVRQAPGQGLEWMGGIIPIFGTTNYAQKFQGRVTITADKSTSTVYMELSSLRSEDSAVYFCARAYCSGGTCYGGADYWGQGTLVTVSS VL: SYELTQPPSVSVSPGQTARITCSGDVLPKQYAYWYQQKLGQAPLLVMYKDTERPSGIPERFSGSSSVTAVTLTISGVQAEDEADYYCQSADSTQELFGGGTKLTVL	9.37

Moving on to the next binder.
Lookup: Give me measured pKd, please, for this binder: ADI-41406 (antibody, V domains shown, IgG1; also called Ab 698) VH: EVQLVESGGNLVQPGGSLRLSCAASGFTFSSYVMNWVRQAPGKGLEWVSGISGSGGTSYYADSVKGRFTISRDNSNNTLYLQMKSLRAEDTAVYYCAKDPRFQKWLIEGTNWFDSWGQGTLVTVSS VL: DIQVTQSPSSLSASVGDRVTITCRASQDVSNYLAWFQQKPGTAPKSLIYAASILQSGVPSKFRGSGSGTDFSLTISSLQPEDFATYYCQQYRSFPPTFGGGTKVEIK
Found: 9.24
